target: 3',5'-cyclic-AMP phosphodiesterase 4A (Homo sapiens, UniProt P27815); assay type: functional; note: assay procedure not described here
Sequence (P27815 whole entry): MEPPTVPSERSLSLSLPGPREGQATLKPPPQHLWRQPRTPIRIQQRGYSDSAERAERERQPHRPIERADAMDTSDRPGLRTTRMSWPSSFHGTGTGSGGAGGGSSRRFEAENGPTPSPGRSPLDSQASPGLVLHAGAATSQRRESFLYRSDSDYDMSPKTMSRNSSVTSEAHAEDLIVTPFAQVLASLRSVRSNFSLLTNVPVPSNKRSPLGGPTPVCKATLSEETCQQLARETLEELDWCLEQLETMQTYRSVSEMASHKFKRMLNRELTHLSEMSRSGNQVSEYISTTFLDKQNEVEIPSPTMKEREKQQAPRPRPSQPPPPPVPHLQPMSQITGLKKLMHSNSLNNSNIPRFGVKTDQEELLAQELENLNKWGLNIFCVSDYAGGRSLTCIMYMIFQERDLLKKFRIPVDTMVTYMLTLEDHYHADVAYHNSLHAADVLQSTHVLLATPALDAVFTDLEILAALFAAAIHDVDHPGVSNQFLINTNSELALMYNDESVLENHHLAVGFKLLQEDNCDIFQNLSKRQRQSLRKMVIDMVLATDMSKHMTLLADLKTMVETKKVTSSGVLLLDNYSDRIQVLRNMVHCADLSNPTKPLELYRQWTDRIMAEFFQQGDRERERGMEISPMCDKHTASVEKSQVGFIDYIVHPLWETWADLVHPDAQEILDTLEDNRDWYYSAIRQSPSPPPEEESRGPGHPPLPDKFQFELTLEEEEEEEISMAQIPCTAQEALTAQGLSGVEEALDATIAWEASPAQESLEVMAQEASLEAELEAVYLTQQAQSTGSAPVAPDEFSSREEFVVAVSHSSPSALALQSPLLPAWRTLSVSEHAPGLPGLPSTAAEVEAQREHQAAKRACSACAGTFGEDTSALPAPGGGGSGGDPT
PROPERTY: AC50

| COMPOUND | ASSAY VALUE |
| --- | --- |
| O=C(c1ccc(F)c(F)c1Nc1ccc(I)cc1F)N1CC(O)([C@@H]2CCCCN2)C1 [COBIMETINIB] | > 30 µM |
| COc1ccc(-c2cc(=O)c3c(O)cc(O[C@@H]4O[C@H](CO[C@@H]5O[C@@H](C)[C@H](O)[C@@H](O)[C@H]5O)[C@@H](O)[C@H](O)[C@H]4O)cc3o2)cc1O [DIOSMIN] | > 30 µM |
| CC1=NN(c2ccccc2)C(=O)C1 [EDARAVONE] | > 30 µM |
| CC(C)Cc1ccc(C(C)C(=O)NO)cc1 (centres undefined) [IBUPROXAM] | 24.2 µM |

* * *

The following molecules are shown together with reported AC50 values.
target: 5-hydroxytryptamine receptor 1A (Homo sapiens, UniProt P08908); assay type: functional, cell-based; note: assay procedure not described here
Sequence (P08908 whole entry): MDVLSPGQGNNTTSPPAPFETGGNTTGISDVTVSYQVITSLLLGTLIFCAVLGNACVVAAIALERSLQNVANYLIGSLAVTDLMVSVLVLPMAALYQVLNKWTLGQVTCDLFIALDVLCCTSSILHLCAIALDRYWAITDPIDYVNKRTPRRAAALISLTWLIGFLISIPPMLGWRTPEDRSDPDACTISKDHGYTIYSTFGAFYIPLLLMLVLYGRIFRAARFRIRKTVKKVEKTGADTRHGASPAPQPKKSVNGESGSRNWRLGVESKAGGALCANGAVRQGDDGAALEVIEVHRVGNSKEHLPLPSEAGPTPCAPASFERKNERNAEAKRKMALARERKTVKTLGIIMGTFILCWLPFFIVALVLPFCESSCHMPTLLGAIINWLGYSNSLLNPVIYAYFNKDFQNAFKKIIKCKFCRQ

| MOLECULE | AC50 |
| --- | --- |
| O=C(O)c1cc(-c2ccc(F)cc2F)ccc1O | > 10 µM |
| CN(C)CCCN1c2ccccc2CCc2ccc(Cl)cc21 | > 30 µM |
| CN1CCCN=C1COC(=O)C(O)(c1ccccc1)C1CCCCC1 (stereo not given) | > 10 µM |
| CN(C)CCCN1c2ccccc2Sc2ccccc21 | > 10 µM |
| CS(=O)(=O)c1ccc([C@@H](O)[C@@H](CO)NC(=O)C(Cl)Cl)cc1 | > 30 µM |
| CCCCCCC(C)(C)c1cc(O)c2c(c1)OC(C)(C)C1CCC(=O)CC21 (stereo not given) | > 30 µM |
| O=C(CCCCCCC(=O)Nc1ccccc1)NO | > 30 µM |
| CC(Cc1ccccc1)NCCC(c1ccccc1)c1ccccc1 (stereo not given) | > 30 µM |
| NC[C@H]1O[C@H](O[C@H]2[C@H](O)[C@@H](O[C@H]3O[C@H](CO)[C@@H](O)[C@H](N)[C@H]3O)[C@H](N)C[C@@H]2N)[C@H](O)[C@@H](O)[C@@H]1O | > 10 µM |
| CC(=O)N(CC(O)CO)c1c(I)c(C(=O)NCC(O)CO)c(I)c(C(=O)NCC(O)CO)c1I (stereo not given) [IOHEXOL] | > 10 µM |
| O=P(O)(O)C(O)(Cc1cccnc1)P(=O)(O)O | > 30 µM |
| CCOC(=O)[C@H](CCc1ccccc1)N[C@@H](C)C(=O)N1CCC[C@H]1C(=O)O | > 10 µM |
| CCCCN1CCCCC1C(=O)Nc1c(C)cccc1C (stereo not given) | > 30 µM |
| C#C[C@]1(O)CC[C@H]2[C@@H]3CCc4cc(O)ccc4[C@H]3CC[C@@]21C | 5.7 µM |
| CC(C)(C(=O)c1cccnc1)c1cccnc1 | > 10 µM |
| C[C@@H]1O[C@@H]1P(=O)(O)O | > 10 µM |
| CC(=O)O[C@@]12CO[C@@H]1C[C@H](O)[C@@]1(C)C(=O)[C@H](O)C3=C(C)[C@@H](OC(=O)[C@H](O)[C@@H](NC(=O)OC(C)(C)C)c4ccccc4)C[C@@](O)([C@@H](OC(=O)c4ccccc4)[C@H]21)C3(C)C [DOCETAXEL ANHYDROUS] | > 30 µM |
| Cc1cccc(C)c1OCC(C)N (stereo not given) | > 30 µM |
| CCc1ccc(CCOc2ccc(CC3SC(=O)NC3=O)cc2)nc1 (stereo not given) | > 10 µM |
| CC[C@]1(O)C[C@@H]2CN(CCc3c([nH]c4ccccc34)[C@@](C(=O)OC)(c3cc4c(cc3OC)N(C)[C@H]3[C@@](O)(C(N)=O)[C@H](O)[C@]5(CC)C=CCN6CC[C@]43[C@@H]65)C2)C1 | > 30 µM |
| Nc1nc(N)c2nc(-c3ccccc3)c(N)nc2n1 | > 30 µM |
| CC/C=C\C/C=C\C/C=C\CCCCCCCC(=O)O | > 30 µM |
| CCCCCCCCOc1ccccc1C(=O)Nc1ccc(C(=O)OCC[N+](C)(CC)CC)cc1 [OTILONIUM BROMIDE] | 11 µM |
| COC(=O)C1=C(C)NC(C)=C(C(=O)OC)C1c1ccccc1[N+](=O)[O-] | > 10 µM |
| COc1ccc(C(=O)NCc2ccc(OCCN(C)C)cc2)cc1OC [ITOPRIDE] | > 30 µM |
| CC(C)(Oc1ccc(C2CC2(Cl)Cl)cc1)C(=O)O (stereo not given) [CIPROFIBRATE] | > 30 µM |
| CC[C@H](C)C(=O)O[C@H]1C[C@H](O)C=C2C=C[C@H](C)[C@H](CC[C@@H](O)C[C@@H](O)CC(=O)O)[C@H]21 | > 30 µM |
| C[N+](C)(C)CC(=O)O | > 30 µM |
| CCCOc1ccc(C(=O)OCCN(CC)CC)cc1N | > 30 µM |
| CC(C)C(=O)OCC(=O)[C@@]12O[C@H](C3CCCCC3)O[C@@H]1C[C@H]1[C@@H]3CCC4=CC(=O)C=C[C@]4(C)[C@H]3[C@@H](O)C[C@@]12C [CICLESONIDE] | > 10 µM |
| CCC1(C2=CCCCCC2)C(=O)NC(=O)NC1=O | > 10 µM |
| CC(=O)c1ccc2c(c1)N(CCCN1CCN(CCO)CC1)c1ccccc1S2 | > 30 µM |
| CC(C)Cc1ccc(CC(=O)O)cc1 | > 30 µM |
| CC(=O)OCC(=O)[C@@]12OC3(CCCC3)O[C@@H]1C[C@H]1[C@@H]3CCC4=CC(=O)C=C[C@]4(C)[C@@]3(F)[C@@H](O)C[C@@]12C [AMCINONIDE] | > 10 µM |
| CC(C)NCC1CCc2cc(CO)c([N+](=O)[O-])cc2N1 (stereo not given) | > 30 µM |

* * *

biological target: D(3) dopamine receptor (Homo sapiens); note: assay procedure not described here
Sequence (P35462 whole entry): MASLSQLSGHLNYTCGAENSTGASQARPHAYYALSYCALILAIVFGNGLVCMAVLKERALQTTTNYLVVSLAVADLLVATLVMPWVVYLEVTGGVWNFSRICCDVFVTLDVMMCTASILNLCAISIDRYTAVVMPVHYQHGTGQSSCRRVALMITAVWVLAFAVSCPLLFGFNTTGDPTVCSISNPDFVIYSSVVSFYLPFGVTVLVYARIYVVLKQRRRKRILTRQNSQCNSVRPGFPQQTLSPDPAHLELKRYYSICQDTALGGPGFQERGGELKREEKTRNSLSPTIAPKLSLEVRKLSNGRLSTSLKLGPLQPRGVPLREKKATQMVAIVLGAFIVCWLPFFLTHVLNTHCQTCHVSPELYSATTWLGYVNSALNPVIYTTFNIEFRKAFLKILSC
The label condition met is reserved for AC50 strictly under 10 µM; condition not met covers values equal to or above it.

| COMPOUND | DISCRETE LABEL |
| --- | --- |
| O=C(Nc1ccccc1)OCC(CN1CCCCC1)OC(=O)Nc1ccccc1 (configuration not stated) | condition not met |
| COc1cc(Nc2c(C#N)cnc3cc(OCCCN4CCN(C)CC4)c(OC)cc23)c(Cl)cc1Cl | condition met |
| COc1ccc2c(c1)OC(C)(C)C(c1ccccc1)C2c1ccc(OCCN2CCCC2)cc1 (configuration not stated) | condition met |
| CCC(=O)O[C@H]1[C@H](O[C@@H]2[C@@H](C)[C@H](O[C@H]3C[C@@](C)(OC)[C@@H](O)[C@H](C)O3)[C@@H](C)C(=O)O[C@H](CC)[C@@](C)(O)[C@H](O)[C@@H](C)C(=O)[C@H](C)C[C@@]2(C)O)O[C@H](C)C[C@@H]1N(C)C [ERYTHROMYCIN PROPIONATE] | condition not met |
| O=C(c1ccc(F)c(F)c1Nc1ccc(I)cc1F)N1CC(O)([C@@H]2CCCCN2)C1 | condition not met |
| CC(C)Cc1ccc(C(C)C(=O)NO)cc1 (configuration not stated) | condition not met |
| CS(=O)(=O)Nc1cc2occ(NC=O)c(=O)c2cc1Oc1ccccc1 | condition not met |

* * *

The following compounds are shown together with reported AC50 values.
molecular target: Progesterone receptor (Homo sapiens); format: functional; note: assay procedure not described here
Sequence (P06401 whole entry): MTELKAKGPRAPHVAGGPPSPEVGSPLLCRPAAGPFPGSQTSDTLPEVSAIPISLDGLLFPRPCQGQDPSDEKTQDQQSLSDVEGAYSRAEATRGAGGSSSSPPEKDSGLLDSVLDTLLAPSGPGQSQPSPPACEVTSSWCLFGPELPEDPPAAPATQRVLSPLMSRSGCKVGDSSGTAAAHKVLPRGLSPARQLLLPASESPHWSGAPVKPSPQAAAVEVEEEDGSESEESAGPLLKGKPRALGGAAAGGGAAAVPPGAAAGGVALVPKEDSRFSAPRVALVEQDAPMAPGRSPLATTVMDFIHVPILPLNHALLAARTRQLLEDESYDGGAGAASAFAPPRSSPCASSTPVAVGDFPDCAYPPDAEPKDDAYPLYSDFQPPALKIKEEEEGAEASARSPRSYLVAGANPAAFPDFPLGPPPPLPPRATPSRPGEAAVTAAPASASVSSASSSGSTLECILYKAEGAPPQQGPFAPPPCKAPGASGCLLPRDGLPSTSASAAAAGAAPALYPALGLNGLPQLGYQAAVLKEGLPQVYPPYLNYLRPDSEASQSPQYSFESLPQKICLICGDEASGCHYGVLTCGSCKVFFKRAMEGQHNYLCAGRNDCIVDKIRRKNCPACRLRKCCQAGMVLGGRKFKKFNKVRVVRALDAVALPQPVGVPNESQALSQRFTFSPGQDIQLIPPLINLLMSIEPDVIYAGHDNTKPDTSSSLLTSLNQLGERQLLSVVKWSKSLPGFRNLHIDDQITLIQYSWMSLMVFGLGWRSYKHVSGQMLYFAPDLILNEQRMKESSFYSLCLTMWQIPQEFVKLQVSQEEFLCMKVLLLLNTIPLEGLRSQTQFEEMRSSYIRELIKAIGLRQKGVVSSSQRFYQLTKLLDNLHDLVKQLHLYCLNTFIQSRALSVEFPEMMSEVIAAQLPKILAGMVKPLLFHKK
PROPERTY: AC50

| COMPOUND | ASSAY VALUE |
| --- | --- |
| CN1CCCN=C1COC(=O)C(O)(c1ccccc1)C1CCCCC1 (centres undefined) | > 10 µM |
| CCOC(=O)[C@H](CCc1ccccc1)N[C@H]1CCCN2CCC[C@@H](C(=O)O)N2C1=O | > 30 µM |
| Cc1c(Cl)cccc1Nc1ccccc1C(=O)O | > 30 µM |
| CCCCN1CCCCC1C(=O)Nc1c(C)cccc1C (centres undefined) | > 30 µM |
| CN1CCC2=C(C1)C(c1ccccc1)c1ccccc12 (centres undefined) | > 30 µM |
| CCC(C(=O)O)c1ccc(CC(C)C)cc1 (centres undefined) | > 30 µM |
| CN1CCN(C(=O)OC2c3nccnc3C(=O)N2c2ccc(Cl)cn2)CC1 (centres undefined) | > 30 µM |
| CC(=O)NS(=O)(=O)c1ccc(N)cc1 [SULFACETAMIDE] | > 10 µM |
| CCCCC(C)(O)C/C=C/[C@H]1[C@H](O)CC(=O)[C@@H]1CCCCCCC(=O)OC (some centres undefined) | > 30 µM |

* * *

AC50 data for Cannabinoid receptor 1 (Homo sapiens) follow.
PROPERTY: AC50

| MOLECULE | PROPERTY | ASSAY VALUE |
| --- | --- | --- |
| CC(=O)N[C@H]1[C@H]([C@H](O)[C@H](O)CO)OC(C(=O)O)=C[C@@H]1N=C(N)N [ZANAMIVIR] | AC50 | > 30 µM |
| C=C1C[C@@H]2[C@H](CC[C@]3(C)C(=O)CC[C@@H]23)[C@@]2(C)C=CC(=O)C=C12 [EXEMESTANE] | AC50 | > 10 µM |
| CC(=O)NS(=O)(=O)c1ccc(N)cc1 [SULFACETAMIDE] | AC50 | > 10 µM |
| CN1CC(=O)N2[C@H](c3ccc4c(c3)OCO4)c3[nH]c4ccccc4c3C[C@@H]2C1=O | AC50 | > 10 µM |
| NC(CO)C(=O)NNCc1ccc(O)c(O)c1O (configuration not stated) [BENSERAZIDE] | AC50 | > 10 µM |
| COC(=O)[C@@H]1CC2=CC(=O)CC[C@]2(C)[C@@]23O[C@@H]2C[C@@]2(C)[C@@H](CC[C@@]24CCC(=O)O4)[C@H]13 [EPLERENONE] | AC50 | > 10 µM |
| CC(C)c1c(C(=O)Nc2ccccc2)c(-c2ccccc2)c(-c2ccc(F)cc2)n1CC[C@@H](O)C[C@@H](O)CC(=O)O [ATORVASTATIN] | AC50 | > 10 µM |
| CC(C)(N)Cc1ccc(Cl)cc1 [CHLORPHENTERMINE] | AC50 | > 10 µM |
| CCCCOc1cc(C(=O)NCCN(CC)CC)c2ccccc2n1 [DIBUCAINE] | AC50 | > 10 µM |
| CC(C(=O)O)c1ccc(N2CC=CC2)c(Cl)c1 (configuration not stated) [PIRPROFEN] | AC50 | > 10 µM |
| CCC[C@@H]1C[C@@H](C(=O)N[C@@H]([C@H]2O[C@H](SC)[C@H](O)[C@@H](O)[C@H]2O)[C@H](C)Cl)N(C)C1 [CLINDAMYCIN] | AC50 | > 10 µM |
| COc1cc(Nc2c(C#N)cnc3cc(OCCCN4CCN(C)CC4)c(OC)cc23)c(Cl)cc1Cl [BOSUTINIB] | AC50 | > 10 µM |
| O=C(CCCCCCC(=O)Nc1ccccc1)NO [VORINOSTAT] | AC50 | > 10 µM |
| C[C@H]1C[C@@H]2[C@H]([C@@H](O)C[C@@]3(C)[C@H]2CC[C@]3(O)C(=O)CO)[C@@]2(C)C=CC(=O)C=C12 [METHYLPREDNISOLONE] | AC50 | > 10 µM |
| NC(=O)c1cnccn1 [PYRAZINAMIDE] | AC50 | > 30 µM |
| Cc1ccc(C(=O)c2cc(O)c(O)c([N+](=O)[O-])c2)cc1 [TOLCAPONE] | AC50 | > 10 µM |
| Cc1nc2ccc(CN(C)c3ccc(C(=O)N[C@@H](CCC(=O)O)C(=O)O)s3)cc2c(=O)[nH]1 [RALTITREXED] | AC50 | > 30 µM |
